Assayed Target: Cytochrome P450 3A4 (Homo sapiens, UniProt P08684);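 further: CYP3A4 tested as one member of a cytochrome P450 panel screen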
Sequence (P08684 whole entry): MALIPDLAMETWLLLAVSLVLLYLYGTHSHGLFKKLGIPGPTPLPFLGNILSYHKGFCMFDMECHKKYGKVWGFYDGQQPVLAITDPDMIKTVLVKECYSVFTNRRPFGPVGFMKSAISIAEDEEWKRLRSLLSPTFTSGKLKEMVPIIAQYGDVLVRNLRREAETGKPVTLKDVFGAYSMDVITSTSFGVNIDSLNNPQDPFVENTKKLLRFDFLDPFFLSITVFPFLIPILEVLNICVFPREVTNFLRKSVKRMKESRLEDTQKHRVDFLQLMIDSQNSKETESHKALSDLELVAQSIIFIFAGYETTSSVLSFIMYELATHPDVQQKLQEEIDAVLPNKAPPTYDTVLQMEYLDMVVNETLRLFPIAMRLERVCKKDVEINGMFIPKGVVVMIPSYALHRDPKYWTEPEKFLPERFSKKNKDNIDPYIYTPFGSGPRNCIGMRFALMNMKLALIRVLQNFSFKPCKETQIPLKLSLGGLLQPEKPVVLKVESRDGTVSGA
Experimental Endpoint: AC50

>>> experimental_result("COc1ccc(-n2c(=O)c(-c3cc(F)cc(F)c3)nc3cnc(N4CCOCC4)nc32)cc1")
"15.8 µM (inconclusive)"
>>> experimental_result("N#Cc1ccc(CN2CCCC3(CCN(C(=O)c4ccncc4)CC3)C2)cc1")
"1.58 µM (inconclusive)"
>>> experimental_result("COc1ccccc1CNc1cc(-c2ccccc2Cl)ncn1")
"39.8 µM (inconclusive)"
>>> experimental_result("CCCS(=O)(=O)N1CCCC(C(=O)N2CCN(c3ccccc3)CC2)C1 (centres undefined)")
"14.1 µM (inconclusive)"

Dear colleague, could you please provide AC50 for the compounds listed below?
1. CCOc1c2ccc(C(=O)NCc3ccco3)cc2nn1CC
2. COCc1nc2c([nH]1)c(=O)n(C)c(=O)n2CC(C)C
3. O=C(O)C1CCN(c2ncnc3ccc(-c4ccccc4C(F)(F)F)cc23)CC1
4. Cc1cccc(CNc2ccnc(-c3ccccc3CN(C)C)n2)c1
5. CO[C@@H]1COC(=O)[C@@H](C)NC(=O)C/C=C\[C@@H](C)[C@H](NS(=O)(=O)c2ccc(C)cc2)COC(=O)[C@H](C)NC(=O)C/C=C\[C@H]1C

RESULT:
["31.6 µM (inconclusive)", "1.26 µM (inconclusive)", "39.8 µM (inconclusive)", "3.98 µM (inconclusive)", "5.01 µM (inconclusive)"]

Reference source: ChEMBL document CHEMBL1201862
